// provenance: patent US20240010721A1

In this section we review reported koff values for a set of binders.
Molecular target: ROR1 (antigen of the KD determination and of the Octet dissociation measurement) (UniProt Q01973 30-403, limits assumed)
Sequence (Q01973 30-403 limits assumed): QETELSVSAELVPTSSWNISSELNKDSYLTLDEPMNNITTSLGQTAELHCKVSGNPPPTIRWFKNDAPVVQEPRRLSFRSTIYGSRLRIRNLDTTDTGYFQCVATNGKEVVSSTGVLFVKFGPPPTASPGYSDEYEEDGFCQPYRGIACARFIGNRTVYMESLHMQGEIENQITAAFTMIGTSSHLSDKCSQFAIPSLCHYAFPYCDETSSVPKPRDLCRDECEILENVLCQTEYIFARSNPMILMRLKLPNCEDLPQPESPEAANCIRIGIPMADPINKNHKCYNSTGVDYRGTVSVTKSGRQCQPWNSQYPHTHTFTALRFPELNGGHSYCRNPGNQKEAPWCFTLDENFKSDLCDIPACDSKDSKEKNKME
Experiment: Octet, antigen form not stated
Returns: string containing the number followed by the unit.

>>> observed_result("PR002567 (antibody, human IgG1, kappa, V domains shown, PR001354 variant: VH G55A; hIgG1; also called anti-ROR1 1015M2-C9(H: G55A) hIgG1) VH: QVQLVQSGGGVVQPGRSLRLSCAASGFTFSSYGMHWVRQAPGKGLEWVAIMWYDASDKDYADSVKGRFTISRDTSKNTLYLQMNSLRAEDTAVYYCAREQARSFDLWGRGTLVTVSS VL: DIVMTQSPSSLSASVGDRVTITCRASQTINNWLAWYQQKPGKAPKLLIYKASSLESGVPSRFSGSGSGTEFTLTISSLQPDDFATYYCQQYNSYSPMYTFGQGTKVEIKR")
"0.000215 s⁻¹"
>>> observed_result("PR002575 (antibody, human IgG1, kappa, V domains shown, PR001364 variant: VH D54E, VL N92Q; hIgG1; also called anti-ROR1 1015M3-D8(H: D54E; L: N92Q) hIgG1) VH: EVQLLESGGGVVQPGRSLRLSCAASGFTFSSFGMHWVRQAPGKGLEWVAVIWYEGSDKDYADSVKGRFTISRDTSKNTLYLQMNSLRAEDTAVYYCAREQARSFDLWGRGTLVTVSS VL: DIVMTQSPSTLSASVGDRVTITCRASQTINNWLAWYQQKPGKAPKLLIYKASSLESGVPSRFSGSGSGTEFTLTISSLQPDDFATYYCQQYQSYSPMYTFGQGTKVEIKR")
"0.000112 s⁻¹"
>>> observed_result("PR002578 (antibody, human IgG1, kappa, V domains shown, PR001364 variant: VH G55A, VL N92Q; hIgG1; also called anti-ROR1 1015M3-D8(H: G55A; L: N92Q) hIgG1) VH: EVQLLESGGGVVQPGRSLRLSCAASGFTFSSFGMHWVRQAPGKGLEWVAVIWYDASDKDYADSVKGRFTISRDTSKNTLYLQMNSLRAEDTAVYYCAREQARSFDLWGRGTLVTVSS VL: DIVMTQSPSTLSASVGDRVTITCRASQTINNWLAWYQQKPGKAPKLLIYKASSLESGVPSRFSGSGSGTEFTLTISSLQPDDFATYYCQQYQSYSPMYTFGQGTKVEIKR")
"0.000322 s⁻¹"

Q: # query: koff of entry PR002572 (antibody, human IgG1, kappa, V domains shown, PR001364 variant: VL N92Q; hIgG1; also called anti-ROR1 1015M3-D8(L: N92Q) hIgG1) VH: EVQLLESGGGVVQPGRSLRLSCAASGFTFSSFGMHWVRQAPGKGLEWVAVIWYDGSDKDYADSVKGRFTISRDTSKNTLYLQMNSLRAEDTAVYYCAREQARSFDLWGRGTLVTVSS VL: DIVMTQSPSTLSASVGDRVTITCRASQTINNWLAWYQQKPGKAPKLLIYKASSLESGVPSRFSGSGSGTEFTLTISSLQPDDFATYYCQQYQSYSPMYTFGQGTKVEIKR
Result: 0.000104 s⁻¹

Q: Similarly, PR002583 (antibody, human IgG1, kappa, V domains shown, PR001369 variant: VH D54E, VL N92Q; hIgG1; also called anti-ROR1 1015M3-H10(H: D54E; L: N92Q) hIgG1) VH: QVQLVESGGGVVQPGRSLRLSCAASGFTFSNYGIHWVRQAPGKGLEWVAIMWYEGSNTDYADSVKGRFTISRDTSKNTLFLQMNSLRAEDTAVYYCAREQARSFDLWGRGTLVTVSS VL: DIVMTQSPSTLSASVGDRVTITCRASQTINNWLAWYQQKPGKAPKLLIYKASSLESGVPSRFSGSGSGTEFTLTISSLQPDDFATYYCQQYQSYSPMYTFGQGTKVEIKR ?
Result: 0.000223 s⁻¹

Q: Similarly, PR002584 (antibody, human IgG1, kappa, V domains shown, PR001369 variant: VH D54E, VL S93A; hIgG1; also called anti-ROR1 1015M3-H10(H: D54E; L: S93A) hIgG1) VH: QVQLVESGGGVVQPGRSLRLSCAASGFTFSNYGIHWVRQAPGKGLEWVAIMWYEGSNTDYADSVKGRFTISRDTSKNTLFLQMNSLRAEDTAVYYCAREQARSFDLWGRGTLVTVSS VL: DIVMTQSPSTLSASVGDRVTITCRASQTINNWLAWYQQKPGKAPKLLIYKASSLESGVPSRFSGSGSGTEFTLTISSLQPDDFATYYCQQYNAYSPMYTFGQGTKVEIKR ?
Result: 0.000301 s⁻¹

Q: Similarly, PR001354 (antibody, human IgG1, kappa, V domains shown, fully human IgG1, kappa; also called anti-ROR1 1015M2-C9 hIgG1; PR001354(WT)) VH: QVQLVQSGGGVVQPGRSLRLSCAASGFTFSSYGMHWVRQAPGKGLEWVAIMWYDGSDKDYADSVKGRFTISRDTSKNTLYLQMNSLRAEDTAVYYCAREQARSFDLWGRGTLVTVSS VL: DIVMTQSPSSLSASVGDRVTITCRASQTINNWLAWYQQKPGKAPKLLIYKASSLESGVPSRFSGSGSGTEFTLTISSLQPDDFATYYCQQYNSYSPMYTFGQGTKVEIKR ?
Result: 0.000117 s⁻¹

Q: Similarly, PR002576 (antibody, human IgG1, kappa, V domains shown, PR001364 variant: VH D54E, VL S93A; hIgG1; also called anti-ROR1 1015M3-D8(H: D54E; L: S93A) hIgG1) VH: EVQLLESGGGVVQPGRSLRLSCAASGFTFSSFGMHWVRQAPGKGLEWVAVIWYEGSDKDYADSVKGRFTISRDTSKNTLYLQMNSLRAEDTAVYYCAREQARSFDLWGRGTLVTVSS VL: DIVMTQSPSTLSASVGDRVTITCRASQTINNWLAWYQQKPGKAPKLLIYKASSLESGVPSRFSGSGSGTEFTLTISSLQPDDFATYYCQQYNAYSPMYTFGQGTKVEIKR ?
Result: 9.83e-05 s⁻¹

Q: Similarly, PR002582 (antibody, human IgG1, kappa, V domains shown, PR001369 variant: VH D54E; hIgG1; also called anti-ROR1 1015M3-H10(H: D54E) hIgG1) VH: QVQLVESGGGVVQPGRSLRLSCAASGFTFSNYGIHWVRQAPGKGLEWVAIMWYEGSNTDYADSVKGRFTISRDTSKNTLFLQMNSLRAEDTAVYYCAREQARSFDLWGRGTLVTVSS VL: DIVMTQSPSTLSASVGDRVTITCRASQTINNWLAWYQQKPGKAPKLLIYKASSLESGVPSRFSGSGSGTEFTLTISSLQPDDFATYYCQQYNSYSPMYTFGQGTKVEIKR ?
Result: 0.000193 s⁻¹

Q: Similarly, PR002565 (antibody, human IgG1, kappa, V domains shown, PR001354 variant: VH D54E, VL N92Q; hIgG1; also called anti-ROR1 1015M2-C9(H: D54E; L: N92Q) hIgG1) VH: QVQLVQSGGGVVQPGRSLRLSCAASGFTFSSYGMHWVRQAPGKGLEWVAIMWYEGSDKDYADSVKGRFTISRDTSKNTLYLQMNSLRAEDTAVYYCAREQARSFDLWGRGTLVTVSS VL: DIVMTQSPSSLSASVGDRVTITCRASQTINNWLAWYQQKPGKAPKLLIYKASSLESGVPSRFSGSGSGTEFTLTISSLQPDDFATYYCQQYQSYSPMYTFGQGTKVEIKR ?
Result: 0.000106 s⁻¹
